biological target: (NANP)6 (Plasmodium falciparum); experiment: SPR, antibody on chip
READOUT: pKd
The scale used: pKd is minus the common logarithm of the concentration in molar units.

q: Please supply the value of reported pKd for the item AB-007030 (antibody, V domains shown) VH: QMQLVESGGGVVQPGRSLRLSCTASGFTFSTYAMHWVRQSPGQGLEWVAVISYHSTNKYYADSVRGRFTISRDNSKNTLYLQMNSLRAEDTAVYYCARDGYSSSFFDFWGQGTLVTVSS VL: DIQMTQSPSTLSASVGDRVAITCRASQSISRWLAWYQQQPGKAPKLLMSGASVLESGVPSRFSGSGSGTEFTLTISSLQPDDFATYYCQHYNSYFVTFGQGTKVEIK
a: 10.27

q: Respond only with pKd recorded for AB-007062 (antibody, V domains shown) VH: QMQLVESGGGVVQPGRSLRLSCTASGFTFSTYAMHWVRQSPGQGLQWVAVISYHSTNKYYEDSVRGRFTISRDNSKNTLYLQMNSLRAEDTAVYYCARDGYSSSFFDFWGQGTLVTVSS VL: DIQMTQSPSTLSASVGDRVAITCRASQSISSWLAWYQQQPGKAPKLLMSGASVLESGVPSRFSGSGSGTEFTLTISSLQPDDFATYYCQHYNSYFVTFGQGTKVEIK
a: 9.47

q: Output pKd of AB-007064 (antibody, V domains shown) VH: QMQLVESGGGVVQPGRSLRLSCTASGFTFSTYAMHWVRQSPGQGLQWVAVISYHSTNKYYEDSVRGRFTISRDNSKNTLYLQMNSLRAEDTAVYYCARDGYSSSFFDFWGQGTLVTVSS VL: DIQMTQSPSTLSASVGDRVAITCRASQSISRWLAWYQQQPGKAPKLLMTGASVLESGVPSRFSGSGSGTEFTLTISSLQPDDFATYYCQHYNSYFVTFGQGTKVEIK
a: 9.72

q: Identify pKd associated with the binder AB-007059 (antibody, V domains shown) VH: QMQLVESGGGVVQPGRSLRLSCTASGFTFSTYAMHWVRQSPGQGLQWVAVISYHSTNKYYEDSVRGRFTISRDNSKNTLYLQMNSLRAEDTAVYYCARDGYSSTFFDFWGQGTLVTVSS VL: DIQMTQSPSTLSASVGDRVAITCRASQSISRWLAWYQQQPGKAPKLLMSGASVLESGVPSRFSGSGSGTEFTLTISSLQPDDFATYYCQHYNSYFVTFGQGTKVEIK
a: 9.58
